The following compounds are listed with their measured clearance values.
Test: Clearance in Beagle dog
Assay type: ADME, organism-based, Canis lupus familiaris
Conditions: in vivo
Answer format: numeric, mL/min/kg implied, no suffix.

NC(=O)c1cccc2[nH]c(-c3ccc([C@@H]4CCCCN4)cc3F)nc12 :: 56.7

Req: What value of clearance has been reported for the following compound? NC(=O)c1cccc2[nH]c(-c3ccc([C@@H]4CCCN4)cc3F)nc12
Resp: 28.3

###

Experiment: Clearance in Sprague-Dawley rat
Format: ADME, organism-based
Settings: in vivo
measured-attribute: clearance (mL/min/kg)
Answer format: numeric, mL/min/kg implied, no suffix.

NC(=O)c1cccc2[nH]c(-c3ccc([C@@H]4CCCN4)cc3F)nc12 :: 28.3

Here's the next entry for you.
Req: What value of clearance has been reported for the following molecule? NC(=O)c1cccc2[nH]c(-c3ccc([C@@H]4CCCCN4)cc3F)nc12
Resp: 38.3

Ref: ChEMBL document CHEMBL1156198
